Cited source for all entries: the kinase profiling compilation of Christmann-Franck et al. (2016)

# residual activity values compiled below
EXPERIMENTAL_SYSTEM: PRKAA1 PRKAB2 PRKAG1 (human) (UniProt O43741+Q13131+P54619)
Sequence (O43741 whole entry, looked up): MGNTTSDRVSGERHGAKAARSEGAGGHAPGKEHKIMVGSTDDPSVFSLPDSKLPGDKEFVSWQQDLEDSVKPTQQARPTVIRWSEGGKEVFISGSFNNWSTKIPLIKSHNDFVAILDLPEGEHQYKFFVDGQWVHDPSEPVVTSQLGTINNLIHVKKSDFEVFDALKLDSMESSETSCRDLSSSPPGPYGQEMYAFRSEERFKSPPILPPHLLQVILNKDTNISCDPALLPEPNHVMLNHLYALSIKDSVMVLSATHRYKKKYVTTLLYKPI
Sequence (P54619 whole entry, looked up): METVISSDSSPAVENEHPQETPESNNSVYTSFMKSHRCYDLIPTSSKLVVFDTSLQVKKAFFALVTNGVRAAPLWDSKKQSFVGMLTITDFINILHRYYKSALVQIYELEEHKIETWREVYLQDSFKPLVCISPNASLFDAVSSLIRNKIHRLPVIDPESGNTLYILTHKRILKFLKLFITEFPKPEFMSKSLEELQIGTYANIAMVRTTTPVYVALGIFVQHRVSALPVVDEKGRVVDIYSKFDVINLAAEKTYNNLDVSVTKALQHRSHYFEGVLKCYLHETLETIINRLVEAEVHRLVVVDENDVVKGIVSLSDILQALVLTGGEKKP
Sequence (Q13131 whole entry, looked up): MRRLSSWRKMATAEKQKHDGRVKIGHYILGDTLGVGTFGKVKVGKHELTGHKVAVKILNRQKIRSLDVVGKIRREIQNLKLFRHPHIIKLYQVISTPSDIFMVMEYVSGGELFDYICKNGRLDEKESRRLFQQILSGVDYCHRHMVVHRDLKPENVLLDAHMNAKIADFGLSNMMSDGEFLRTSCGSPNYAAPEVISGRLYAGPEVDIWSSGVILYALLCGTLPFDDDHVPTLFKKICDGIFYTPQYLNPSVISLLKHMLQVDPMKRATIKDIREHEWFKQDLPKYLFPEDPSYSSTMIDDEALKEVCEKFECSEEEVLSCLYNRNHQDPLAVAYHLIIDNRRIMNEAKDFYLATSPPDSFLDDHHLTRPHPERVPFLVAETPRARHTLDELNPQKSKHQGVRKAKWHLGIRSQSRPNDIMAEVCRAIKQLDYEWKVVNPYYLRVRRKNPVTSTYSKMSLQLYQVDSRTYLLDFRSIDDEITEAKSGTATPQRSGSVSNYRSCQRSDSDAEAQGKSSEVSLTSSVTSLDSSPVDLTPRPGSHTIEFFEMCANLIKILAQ
ASSAY_NOTES: radiometric filter-binding kinase assay
RECORDED_CONDITIONS: compound 10.0 µM
Express it in %; write the number only.

Below: 4 compounds and their reported residual activity.
COMPOUND	UNIT	MEASURED_NUMBER
COC(=O)/C=C/C(=O)OC	%	87
CC1=C(CO)C(=O)O[C@@H]([C@@H](C)[C@H]2CC[C@H]3[C@@H]4C[C@H]5O[C@]56[C@@H](O)C=CC(=O)[C@]6(C)C4CC[C@]23C)C1 (stereo partly drawn)	%	112
Cc1ccc(-c2ccc3c(ccc4sc5c(c43)NC[C@@H](C)NC5=O)n2)cn1	%	6
NCC(=O)Nc1ccc(-n2nc(C(F)(F)F)cc2-c2ccc3c(ccc4ccccc43)c2)cc1	%	94

Record COc1cc(C(=O)N2CCOCC2)c(F)cc1Nc1ncc(C(F)(F)F)c(NC2CC2)n1 ; system PRKAA1 PRKAB2 PRKAG1 (human) (UniProt O43741+Q13131+P54619); residual activity = 44

Record CCn1c(-c2nonc2N)nc2cncc(CNC3CCNCC3)c21 ; system PRKAA1 PRKAB2 PRKAG1 (human) (UniProt O43741+Q13131+P54619); residual activity = 34

Record CCNc1nc(Nc2cc(F)c(C(=O)N3CCOCC3)cc2OC)ncc1C(F)(F)F ; system PRKAA1 PRKAB2 PRKAG1 (human) (UniProt O43741+Q13131+P54619); residual activity = 29

Record Nc1cccc2c1CN(C1CCC(=O)NC1=O)C2=O (stereo not drawn) ; system PRKAA1 PRKAB2 PRKAG1 (human) (UniProt O43741+Q13131+P54619); residual activity = 102

---

EXPERIMENTAL_SYSTEM: MAPK8 (human)
ASSAY_NOTES: radiometric filter-binding kinase assay
RECORDED_CONDITIONS: compound 10.0 µM
PROPERTY_NAME: residual activity (%)
Express it in %; write the number only.

> print(dat)
                                   compound      property.name  unit  measured.number
1  FC(F)(F)c1ccc(-c2ccc(Oc3cncc4sc(-c5nn[nH]n5)cc34)cc2)cc1  residual activity     %              101
2          NC(=O)c1c(NC(=O)C2CC2)sc2c1CCCC2  residual activity     %              102
3  NCC(=O)Nc1ccc(-n2nc(C(F)(F)F)cc2-c2ccc3c(ccc4ccccc43)c2)cc1  residual activity     %              103
4  Cc1ccc2c(c1)C(=O)[C@@]1(O)CCN(c3ccccc3)C1=N2  residual activity     %               92
5  CC(C)(C#N)c1ccc(N2C(=O)OCc3cnc4ccc(-c5cnc6ccccc6c5)cc4c32)cc1  residual activity     %              109

Record NS(=O)(=O)OC[C@@H]1C[C@@H](n2ccc3c(N[C@H]4CCc5ccccc54)ncnc32)C[C@@H]1O ; system MAPK8 (human); residual activity = 97

Record C=CC(=O)N1CCC[C@@H](n2nc(-c3ccc(Oc4ccccc4)cc3)c3c(N)ncnc32)C1 ; system MAPK8 (human); residual activity = 75
